TEST: Hemolytic activity in human Erythrocyte at 50 uM measured after 1 hr relative to control
Assay type: ADME, cell-based
SETTINGS: erythrocytes, read-out: Activity
Residues, ends and D or L forms follow the SMILES beside them.
RESULT TYPE: hemolysis at 1 h, 50 µM (%)

COMPOUND	UNIT	RECORDED VALUE
CC[C@H](C)[C@H](NC(=O)[C@@H](NC(=O)[C@H](CCCCN)NC(=O)[C@H](CCCCN)NC(=O)[C@H](Cc1ccccc1)NC(=O)[C@@H](N)CCCCN)C(C)C)C(=O)N[C@@H](Cc1c[nH]c2ccccc12)C(=O)N[C@@H](CCCCN)C(=O)N[C@@H](CO)C(=O)N[C@@H](Cc1ccccc1)C(=O)N[C@@H](CC(C)C)C(=O)O (H-KFKKVIWKSFL-OH)	%	50

* * *

TEST: Cytotoxicity against mouse McCoy cells assessed as cell viability at 0.5 to 4 times of antibacterial MIC incubated for 48 hrs by calcein AM and ethidium homodimer-1 staining based epifluorescence microscopic method relative to control
SETTINGS: read-out: Activity
Residues, ends and D or L forms follow the SMILES beside them.
RESULT TYPE: viability at 48 h (%)

COMPOUND	RESULT TYPE	UNIT	RECORDED VALUE
CC[C@H](C)[C@H](NC(=O)[C@H](CCCNC(=N)N)NC(=O)[C@H](CCSC)NC(=O)[C@@H](NC(=O)[C@H](CCCNC(=N)N)NC(=O)[C@@H](N)Cc1ccccc1)[C@@H](C)CC)C(=O)N[C@@H](CC(C)C)C(=O)N[C@@H](CCCNC(=N)N)C(=O)N[C@H](C(=O)N[C@@H](CC(C)C)C(=O)N[C@@H](CCCCN)C(=O)N[C@@H](CC(C)C)C(=O)O)C(C)C (H-FRIMRILRVLKL-OH)	viability at 48 h	%	100
CC[C@H](C)[C@H](NC(=O)[C@@H](NC(=O)[C@H](CCCCN)NC(=O)[C@H](CCCCN)NC(=O)[C@H](Cc1ccccc1)NC(=O)[C@@H](N)CCCCN)C(C)C)C(=O)N[C@@H](Cc1c[nH]c2ccccc12)C(=O)N[C@@H](CCCCN)C(=O)N[C@@H](CO)C(=O)N[C@@H](Cc1ccccc1)C(=O)N[C@@H](CC(C)C)C(=O)O (H-KFKKVIWKSFL-OH)	viability at 48 h	%	100
CC(C)C[C@H](NC(=O)[C@H](Cc1ccccc1)NC(=O)[C@H](CS)NC(=O)[C@@H](NC(=O)[C@H](CC(C)C)NC(=O)[C@H](CCCNC(=N)N)NC(=O)[C@H](Cc1c[nH]c2ccccc12)NC(=O)[C@@H](N)CCCNC(=N)N)C(C)C)C(=O)N[C@@H](CS)C(=O)N[C@@H](CCCNC(=N)N)C(=O)N[C@@H](CCCNC(=N)N)C(=O)N[C@@H](CCCCN)C(=O)N[C@@H](CCCCN)C(=O)N[C@H](C(=O)O)C(C)C (H-RWRLVCFLCRRKKV-OH)	viability at 48 h	%	100

* * *

TEST: Hemolytic activity in human Erythrocyte at 6.25 uM measured after 1 hr relative to control
Format: ADME, cell-based
SETTINGS: erythrocytes, read-out: Activity
Residues, ends and D or L forms follow the SMILES beside them.
RESULT TYPE: hemolysis at 1 h, 6.25 µM (%)

MOLECULE	RESULT TYPE	UNIT	RECORDED VALUE
CC[C@H](C)[C@H](NC(=O)[C@H](CCCCN)NC(=O)[C@@H](N)Cc1c[nH]c2ccccc12)C(=O)N[C@@H](Cc1ccccc1)C(=O)N[C@@H](CCCCN)C(=O)N[C@@H](CC(C)C)C(=O)N[C@@H](CCCCN)C(=O)N[C@@H](CC(C)C)C(=O)N[C@@H](CCCNC(=N)N)C(=O)N[C@@H](CCSC)C(=O)N[C@@H](CC(C)C)C(=O)N[C@@H](Cc1c[nH]c2ccccc12)C(=O)O (H-WKIFKLKLRMLW-OH)	hemolysis at 1 h, 6.25 µM	%	50
